Experimental System: human Somatostatin 4 Receptor (SSTR4) (Homo sapiens (Human))
Test Name: cAMP assay with human somatostatin 4 receptor (hSSTR4 expressing H4 cells)
Experimental Conditions: read-out: SSTR4 agonism EC50
# reported pEC50; entries follow
Please keep in mind that pEC50 is minus log10 of the molar concentration; only the number is needed.

>  <Compound>
Cc1cc2ccccc2c(C(C)(C)NC(=O)C2CNCCOC2)n1 (single isomer, unassigned) [Example 46]

>  <Reported Result>
8.47

$$$$
>  <Compound>
CC(C)(NC(=O)C1CNCCOC1)c1n[nH]c2c(F)cccc12 (racemic) [Example 88]

>  <Reported Result>
7.95

$$$$
>  <Compound>
Cc1cccc2c(C(C)(C)NC(=O)C3CNCCOC3)cnn12 (single isomer, unassigned) [Example 35]

>  <Reported Result>
5.54

$$$$

Now examine the next entry.
Endpoint output: pEC50 of Cn1nc(C(C)(C)NC(=O)C2CCNCCO2)c2ccccc21 (single isomer, unassigned) [Example 27] . Value?
7.25

---

# reported half-life at 1 μM; entries follow
Test Name: in vitro
Experimental Conditions: human, microsomes, pH 7.6

// solved cases for half-life at 1 μM follow
>  <Compound>
Cc1cccc2c(C(C)(C)NC(=O)C3CNCCOC3)n[nH]c12 (single isomer, unassigned) [Example 60]

>  <half-life at 1 μM>
> 2.17 h

$$$$
>  <Compound>
Cc1cccn2c(C(C)(C)NC(=O)C3CNCCOC3)ccc12 (single isomer, unassigned) [Example 136]

>  <half-life at 1 μM>
> 2.17 h

$$$$
>  <Compound>
Cc1cccc2c(C(C)(C)NC(=O)C3CNCCOC3)noc12 (single isomer, unassigned) [Example 55]

>  <half-life at 1 μM>
> 2.17 h

$$$$
>  <Compound>
CC(C)(NC(=O)C1CNCCOC1)c1n[nH]c2c(F)cccc12 (single isomer, unassigned) [Example 89]

>  <half-life at 1 μM>
> 2.17 h

$$$$
>  <Compound>
Cn1nc(C(C)(C)NC(=O)C2CCNCCO2)c2ccccc21 (single isomer, unassigned) [Example 27]

>  <half-life at 1 μM>
> 2.17 h

$$$$
>  <Compound>
Cc1cccn2c(C(C)(C)NC(=O)[C@@H]3CNCCO3)ccc12 [Example 109]

>  <half-life at 1 μM>
1.4 h

$$$$
>  <Compound>
Cc1cc2ccccc2c(C(C)(C)NC(=O)[C@@H]2CNCCO2)n1 [Example 43]

>  <half-life at 1 μM>
1.83 h

$$$$

Endpoint output: half-life at 1 μM of Cn1nc(C(C)(C)NC(=O)[C@@H]2CNCCO2)c2ccc(F)cc21 [Example 30] . Value?
> 2.17 h

---

Experimental System: human SSTR1 (Homo sapiens (Human))
Sequence (P30872 whole entry): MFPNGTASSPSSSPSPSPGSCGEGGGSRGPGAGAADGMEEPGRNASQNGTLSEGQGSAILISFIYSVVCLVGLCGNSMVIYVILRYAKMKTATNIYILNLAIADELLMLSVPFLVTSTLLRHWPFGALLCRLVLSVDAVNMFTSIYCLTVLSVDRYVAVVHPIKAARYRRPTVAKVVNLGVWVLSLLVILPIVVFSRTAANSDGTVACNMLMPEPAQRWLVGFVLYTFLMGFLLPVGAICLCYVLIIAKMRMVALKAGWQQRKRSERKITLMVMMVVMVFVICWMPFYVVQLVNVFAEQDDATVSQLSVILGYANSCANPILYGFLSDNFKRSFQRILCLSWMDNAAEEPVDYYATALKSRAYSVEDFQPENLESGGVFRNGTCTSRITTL
Test Name: Radioligand binding assay, CHO cell membranes expressing recombinant human SSTR1
# reported Ki; entries follow
Answer with the figure and its unit, nothing else.

>  <Molecule>
Cn1nc(C(C)(C)NC(=O)C2CNCCCO2)c2ccccc21 (single isomer, unassigned)

>  <Ki>
9.45 µM

$$$$
>  <Molecule>
Cn1nc(C(C)(C)NC(=O)[C@@H]2CNCCO2)c2ccccc21

>  <Ki>
9.01 µM

$$$$
>  <Molecule>
Cn1nc(C(C)(C)NC(=O)C2CNCCOC2)c2ccccc21 (single isomer, unassigned)

>  <Ki>
9.45 µM

$$$$

Now examine the next entry.
Endpoint output: Ki of `Cc1cccn2c(C(C)(C)NC(=O)[C@@H]3CNCCO3)ncc12` . Value?
9.48 µM

---

Experimental System: human SSTR4 (Homo sapiens (Human))
Sequence (P31391 whole entry): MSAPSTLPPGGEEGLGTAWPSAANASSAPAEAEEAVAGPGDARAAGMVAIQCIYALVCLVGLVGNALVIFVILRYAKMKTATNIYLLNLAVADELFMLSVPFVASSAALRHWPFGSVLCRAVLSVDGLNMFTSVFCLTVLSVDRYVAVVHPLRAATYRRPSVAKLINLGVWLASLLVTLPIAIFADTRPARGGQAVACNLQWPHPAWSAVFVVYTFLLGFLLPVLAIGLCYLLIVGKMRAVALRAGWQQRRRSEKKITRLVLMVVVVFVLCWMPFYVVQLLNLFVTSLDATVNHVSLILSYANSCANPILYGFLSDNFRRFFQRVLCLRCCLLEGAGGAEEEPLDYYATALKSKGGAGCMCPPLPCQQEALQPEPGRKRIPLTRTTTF
Test Name: Radioligand binding assay, CHO cell membranes expressing recombinant human SSTR4
From the text: Radioligand Binding Assays Method description for binding assays with human Somatostatin receptors by use of CHO cell membranes expressing recombinant human SSTR1 or human SSTR2 or human SSTR3 or human SSTR4 or human SSTR5 Receptor binding assays refer to a technique in which labeled receptor ligands are used to detect binding to a receptor. In competition experiments test compounds, which are not labeled, compete with the binding side of a labeled ligand. […]
# reported pKi; entries follow
Please keep in mind that pKi is minus log10 of the molar concentration; only the number is needed.

>  <Compound>
Cn1nc(C(C)(C)NC(=O)C2CNCCCO2)c2ccccc21 (single isomer, unassigned)

>  <pKi>
6.28

$$$$
>  <Compound>
Cc1cccn2c(C(C)(C)NC(=O)[C@@H]3CNCCO3)ncc12

>  <pKi>
6.66

$$$$
>  <Compound>
Cn1nc(C(C)(C)NC(=O)[C@@H]2CNCCO2)c2ccccc21

>  <pKi>
6.71

$$$$

Endpoint output: pKi of Cn1nc(C(C)(C)NC(=O)C2CNCCOC2)c2ccccc21 (single isomer, unassigned) . Value?
7.05

---

Experimental System: human Somatostatin 4 Receptor (SSTR4) (Homo sapiens (Human))
Test Name: cAMP assay with human somatostatin 4 receptor (hSSTR4 expressing H4 cells)
Experimental Conditions: read-out: SSTR4 agonism EC50
pEC50: −log10 of the molar value.
Binary classification by pEC50, with 7 as an inclusive lower bound for Condition met; all other cases are Condition not met.

Examples from the recorded data:
>  <Molecule>
Cc1ncc(C(C)(C)NC(=O)C2CNCCOC2)c2ccccc12 (single isomer, unassigned) [Example 41]

>  <Experimental System>
human Somatostatin 4 Receptor (SSTR4) (Homo sapiens (Human))

>  <Answer Label>
Condition met

$$$$
>  <Molecule>
Cc1cccn2c(C(C)(C)NC(=O)C3CNCCOC3)nc(C3CC3)c12 (single isomer, unassigned) [Example 140]

>  <Experimental System>
human Somatostatin 4 Receptor (SSTR4) (Homo sapiens (Human))

>  <Answer Label>
Condition not met

$$$$
>  <Molecule>
Cc1cccn2c(C(C)(NC(=O)[C@@H]3CNCCO3)C3CC3)ncc12 (single isomer, unassigned) [Example 110]

>  <Experimental System>
human Somatostatin 4 Receptor (SSTR4) (Homo sapiens (Human))

>  <Answer Label>
Condition not met

$$$$
>  <Molecule>
C[C@H](NC(=O)C1CNCCOC1)c1cccc2ccccc12 (some centres unmarked)

>  <Experimental System>
human Somatostatin 4 Receptor (SSTR4) (Homo sapiens (Human))

>  <Answer Label>
Condition met

$$$$
>  <Molecule>
Cc1ncc(C(C)(C)NC(=O)[C@@H]2CNCCO2)c2ccccc12

>  <Experimental System>
human Somatostatin 4 Receptor (SSTR4) (Homo sapiens (Human))

>  <Answer Label>
Condition met

$$$$

With those in mind, consider the next molecule.
Decide: is the reported value of pEC50 for Cc1cccc2c(C(C)(C)NC(=O)C3CNCCOC3)n[nH]c12 (racemic) [Example 58] equal to or greater than 7?
Condition met

---

Experimental System: human Somatostatin 4 Receptor (SSTR4) (Homo sapiens (Human))
Test Name: cAMP assay with human somatostatin 4 receptor (hSSTR4 expressing H4 cells)
Experimental Conditions: read-out: SSTR4 agonism EC50
Result Type: EC50 (nM)
Report as a plain number; the unit nM is understood.

Endpoint output: EC50 of `CC(C)(NC(=O)[C@@H]1CNCCO1)c1n[nH]c2c(F)cccc12` . Value?
13.4

---

Experimental System: human Somatostatin 4 Receptor (SSTR4) (Homo sapiens (Human), UniProt P31391)
Sequence (P31391 whole entry): as above
Test Name: cAMP assay with human somatostatin 4 receptor (hSSTR4 expressing H4 cells)
Experimental Conditions: read-out: SSTR4 agonism EC50
Result Type: pEC50
Please keep in mind that pEC50 is minus log10 of the molar concentration; only the number is needed.

>  <Molecule>
CC(C)(NC(=O)C1CNCCCO1)c1noc2c(F)cccc12 (racemic) [Example 65]

>  <Experimental System>
human Somatostatin 4 Receptor (SSTR4) (Homo sapiens (Human), UniProt P31391)

>  <pEC50>
6.00

$$$$
>  <Molecule>
Cc1nc(C(C)(C)NC(=O)C2CNCCOC2)c2cccc(C)c2n1 (single isomer, unassigned) [Example 134]

>  <Experimental System>
human Somatostatin 4 Receptor (SSTR4) (Homo sapiens (Human), UniProt P31391)

>  <pEC50>
7.01

$$$$
>  <Molecule>
Cc1cc2ccccc2c(C(C)(C)NC(=O)C2CNCCCO2)n1 (single isomer, unassigned) [Example 48]

>  <Experimental System>
human Somatostatin 4 Receptor (SSTR4) (Homo sapiens (Human), UniProt P31391)

>  <pEC50>
7.72

$$$$

Now examine the next entry.
Endpoint output: pEC50 of COc1cccn2c(C(C)(C)NC(=O)C3CNCCOC3)ncc12 (racemic) [Example 123] . Value?
7.49

---

Experimental System: human Somatostatin 4 Receptor (SSTR4) (Homo sapiens (Human))
Test Name: cAMP assay with human somatostatin 4 receptor (hSSTR4 expressing H4 cells)
Experimental Conditions: read-out: SSTR4 agonism EC50
# reported EC50; entries follow
Report as a plain number; the unit nM is understood.

// solved cases for EC50 follow
>  <Molecule>
Cn1nc(C(C)(C)NC(=O)C2CNCCCO2)c2ccccc21 (single isomer, unassigned) [Example 24]

>  <Reported Result>
36.2

$$$$
>  <Molecule>
Cc1ncc(C(C)(C)NC(=O)C2CNCCOC2)c2ccccc12 (racemic) [Example 40]

>  <Reported Result>
0.8

$$$$
>  <Molecule>
CC(C)(NC(=O)C1CCNCCO1)c1noc2c(F)cccc12 (single isomer, unassigned) [Example 69]

>  <Reported Result>
434

$$$$
>  <Molecule>
CC(C)(NC(=O)C1CNCCOC1)c1noc2c(F)cccc12 (single isomer, unassigned) [Example 64]

>  <Reported Result>
1860

$$$$
>  <Molecule>
Cc1cc(F)cn2c(C(C)(C)NC(=O)[C@@H]3CNCCO3)ncc12 [Example 100]

>  <Reported Result>
103

$$$$

Endpoint output: EC50 of Cc1cc2ccccc2c(C(C)(C)NC(=O)C2CCNCCO2)n1 (single isomer, unassigned) [Example 51] . Value?
42.9

Endpoint output: EC50 of Cc1cccc2c(C(C)(C)NC(=O)C3CNCCOC3)n[nH]c12 (single isomer, unassigned) [Example 60] . Value?
1.3

Endpoint output: EC50 of CC(C)(NC(=O)C1CNCCOC1)c1cccc2ccccc12 (stereo not shown) [Example 1] . Value?
4.7

Endpoint output: EC50 of Cc1cccn2c(C3(NC(=O)C4CNCCOC4)CCC3)ncc12 (single isomer, unassigned) [Example 132] . Value?
10000

Endpoint output: EC50 of Cc1cccn2c(C(C)(C)NC(=O)C3CNCCCO3)nc(C)c12 (single isomer, unassigned) [Example 148] . Value?
93

Endpoint output: EC50 of Cc1ncc(C(C)(C)NC(=O)[C@H]2CNCCO2)c2ccccc12 [Example 39] . Value?
180

Endpoint output: EC50 of CC(C)(NC(=O)[C@@H]1CNCCO1)c1ncc2c(Cl)cccn12 [Example 96] . Value?
13

Endpoint output: EC50 of Cc1cccn2c(C(C)(C)NC(=O)C3CNCCOC3)nc(C3CC3)c12 (single isomer, unassigned) [Example 139] . Value?
22.2

These data points were gathered from patent US10071974B2.
